- Method Summary: Solubility of the compound at pH 6.8
- Assay type: physicochemical
- Experimental Context: buffer

>  <Smiles Str>
CC1(N)CCN(c2cnc(-c3cccc(Cl)c3Cl)c(N)n2)CC1

>  <solubility>
> 500 µM

$$$$

----------
- Measured Target: Tyrosine-protein phosphatase non-receptor type 11 (Homo sapiens, UniProt Q06124)
- Sequence (Q06124 whole entry, the tested form may be a part): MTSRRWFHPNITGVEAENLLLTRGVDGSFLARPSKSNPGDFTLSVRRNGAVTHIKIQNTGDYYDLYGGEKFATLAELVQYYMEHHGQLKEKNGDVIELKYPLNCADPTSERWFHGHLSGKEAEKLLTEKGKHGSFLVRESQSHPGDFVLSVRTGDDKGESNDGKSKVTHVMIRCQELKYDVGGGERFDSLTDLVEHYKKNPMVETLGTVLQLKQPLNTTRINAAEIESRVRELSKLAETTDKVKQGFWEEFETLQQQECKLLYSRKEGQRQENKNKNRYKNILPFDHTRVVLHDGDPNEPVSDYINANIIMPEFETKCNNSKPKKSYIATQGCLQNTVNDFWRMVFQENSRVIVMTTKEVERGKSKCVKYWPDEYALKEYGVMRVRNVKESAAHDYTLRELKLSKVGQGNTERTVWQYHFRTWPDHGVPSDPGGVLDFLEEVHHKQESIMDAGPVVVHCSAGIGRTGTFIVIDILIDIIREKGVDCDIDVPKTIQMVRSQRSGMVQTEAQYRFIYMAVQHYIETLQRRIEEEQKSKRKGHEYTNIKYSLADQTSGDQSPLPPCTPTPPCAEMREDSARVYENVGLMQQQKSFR
- Method Summary: Inhibition of human SHP2 PTP domain (237 to 529 residues) by fluorescence analysis

>  <Smiles Str>
C[C@@H]1CN(c2ncc(-c3cccc(Cl)c3Cl)c(N)n2)C[C@H](C)N1

>  <IC50>
> 100 µM

$$$$

----------
- Method Summary: Oral bioavailability in C57BL/6 mouse at 5 mg/kg by LC-MS/MS analysis
- Assay type: ADME, organism-based
- Experimental Context: in vivo

>  <Smiles Str>
CC1(N)CCN(c2cnc(-c3cccc(Cl)c3Cl)c(N)n2)CC1

>  <Unit Of Measure>
%

>  <bioavailability>
46

$$$$
